Experiment: Cmax in C57BL/6 mouse at 25 mg/kg, po
Assay type: ADME, organism-based
Set-up: dose 25 mg/kg, route oral
Conditions: in vivo
measured-attribute: Cmax (µM)
Report the value in µM with no unit label.

For this molecule ( Nc1nc(F)nc2c1ncn2[C@@H]1O[C@H](CO)C[C@H]1O ), measured Cmax is 4

---

Assay: Apparent permeability across basolateral to apical side in human Caco2 cells assessed as compound recovery at 10 uM by LC-MS/MS analysis
Type: ADME, cell-based
Settings: Caco-2, read-out: Papp
measured-attribute: recovery at 10 µM (%)
Provide only the numeric value, understood in %.

Sure, the documented recovery at 10 µM for Nc1nc(F)nc2c1ncn2[C@@H]1O[C@H](CO)C[C@H]1O is 104

---

Experiment: Displacement of [2,8-3H]-adenosine from Trypanosoma brucei AT1/P2 expressed in bloodstream stage of Trypanosoma brucei brucei B48
Response field label: string, one of 1 (yes) (Ki strictly below 900 nM) or 0 (no).

>  <molecule>
Nc1nc(F)nc2c1ncn2[C@@H]1O[C@H](CO)[C@@H](O)[C@H]1O

>  <category>
0 (no)

$$$$

Query: Here's an entry: Nc1ncnc2c1ncn2[C@@H]1O[C@H](CO)C[C@H]1O [CORDYCEPIN] . Is its Ki below 900 nM?
Reply: 1 (yes)

Query: Please determine if Nc1[nH]c(Cl)nc2ncnc1-2 is below 900 nM in terms of Ki.
Reply: 0 (no)

Query: I wonder whether Nc1nc(Cl)nc2c1ncn2[C@@H]1O[C@H](CO)[C@@H](O)[C@H]1O has Ki below 900 nM. Can you tell?
Reply: 0 (no)

Query: # check: Ki < 900 nM for Nc1[nH]cnc2ncnc1-2
Reply: 1 (yes)

Query: Dear colleague, could you confirm whether Ki of Nc1nc(F)nc2c1ncn2[C@@H]1O[C@H](CO)C[C@H]1O falls below 900 nM? Thanks.
Reply: 0 (no)

Query: Ki strictly < 900 nM for this molecule? Nc1nc(Cl)nc2c1ncn2[C@@H]1O[C@H](CO)C[C@H]1O
Reply: 0 (no)

---

Assay: Apparent permeability across apical to basolateral side in human Caco2 cells assessed as compound recovery at 10 uM by LC-MS/MS analysis
Format: ADME, cell-based
Conditions: Caco-2, read-out: Papp
measured-attribute: recovery at 10 µM (%)
Enter your answer as a number in %; do not include the unit.

Recorded result, Nc1nc(F)nc2c1ncn2[C@@H]1O[C@H](CO)C[C@H]1O , recovery at 10 µM: 102
